# Test Description: Bidirectional transport (Papp) across Caco-2 cell monolayer
# Assay type: in vitro ADME, human
# Experimental Setup: human; Caco-2 monolayer, 50 µM, incubation up to 90 min, n = 3
Measure: Papp B→A at 90 min, 50 µM (×10⁻⁶ cm/s)
Record the value in ×10⁻⁶ cm/s, omitting the unit from your answer.

Task item: Please list Papp B→A at 90 min, 50 µM recorded for the compound COc1c(/C=C/C(=O)c2ccc(O)cc2)ccc(O)c1CC=C(C)C
Reply: 26.4

Task item: State its Papp B→A at 90 min, 50 µM: COc1cc(O)ccc1/C=C/C(=O)c1ccc(O)cc1
Reply: 23.8

Task item: Answer with reported Papp B→A at 90 min, 50 µM of CC1(C)[C@@H](O)CC[C@]2(C)[C@H]3C(=O)C=C4[C@@H]5C[C@@](C)(C(=O)O)CC[C@]5(C)CC[C@@]4(C)[C@]3(C)CC[C@@H]12
Reply: 14

Task item: Using the record for CC1(C)[C@@H](O[C@@H]2O[C@H](C(=O)O)[C@@H](O)[C@H](O)[C@H]2O)CC[C@]2(C)[C@H]3C(=O)C=C4[C@@H]5C[C@@](C)(C(=O)O)CC[C@]5(C)CC[C@@]4(C)[C@]3(C)CC[C@@H]12 , state its measured Papp B→A at 90 min, 50 µM.
Reply: 1.65

Task item: Report measured Papp B→A at 90 min, 50 µM; entry is COc1c(/C=C/C(=O)c2ccc(O)cc2)ccc(O)c1O
Reply: 30.2

Task item: State its Papp B→A at 90 min, 50 µM: C=CC(C)(C)c1cc(/C=C/C(=O)c2ccc(O)cc2)c(OC)cc1O
Reply: 1.78

Task item: Entry O=C1C[C@@H](c2ccc(O)cc2)Oc2cc(O)ccc21 needs its Papp B→A at 90 min, 50 µM filled in; supply it.
Reply: 15.7

###

I'd appreciate it if you could supply Papp at 90 min, 50 µM values for the items below.
# Test Description: Bidirectional transport (Papp) across Caco-2 cell monolayer
# Format: in vitro ADME, human
# Experimental Setup: human; Caco-2 monolayer, both directions

Task item: Specify reported Papp at 90 min, 50 µM for the compound shown: CC1(C)[C@@H](O[C@@H]2O[C@H](C(=O)O)[C@@H](O)[C@H](O)[C@H]2O)CC[C@]2(C)[C@H]3C(=O)C=C4[C@@H]5C[C@@](C)(C(=O)O)CC[C@]5(C)CC[C@@]4(C)[C@]3(C)CC[C@@H]12 [Compound 2]
Reply: ~1 ×10⁻⁶ cm/s

Task item: Hello, please tell me recorded Papp at 90 min, 50 µM for this one: O=C1C[C@@H](c2ccc(O)cc2)Oc2cc(O)ccc21 [Compound 9, liquiritigenin]
Reply: ~10 ×10⁻⁶ cm/s

Task item: Note down Papp at 90 min, 50 µM recorded for CC1(C)[C@@H](O)CC[C@]2(C)[C@H]3C(=O)C=C4[C@@H]5C[C@@](C)(C(=O)O)CC[C@]5(C)CC[C@@]4(C)[C@]3(C)CC[C@@H]12 [Compound 3, glycyrrhetinic acid]
Reply: > 10 ×10⁻⁶ cm/s

Task item: Give the measured Papp at 90 min, 50 µM for CC1(C)[C@@H](O[C@H]2O[C@H](C(=O)O)[C@@H](O)[C@H](O)[C@H]2O[C@@H]2O[C@H](C(=O)O)[C@@H](O)[C@H](O)[C@H]2O)CC[C@]2(C)[C@H]3C(=O)C=C4[C@@H]5C[C@@](C)(C(=O)O)CC[C@]5(C)CC[C@@]4(C)[C@]3(C)CC[C@@H]12 [Compound 1, glycyrrhizin]
Reply: < 0.1 ×10⁻⁶ cm/s
